- TEST_SYSTEM: T1, MASP-2 CCP1-CCP2-SP (human, UniProt O00187 298-686, limits assumed)
- T1 construct: domain: CCP1-CCP2-SP; Recombinant fragment
- T1 sequence (O00187 298-686 limits assumed): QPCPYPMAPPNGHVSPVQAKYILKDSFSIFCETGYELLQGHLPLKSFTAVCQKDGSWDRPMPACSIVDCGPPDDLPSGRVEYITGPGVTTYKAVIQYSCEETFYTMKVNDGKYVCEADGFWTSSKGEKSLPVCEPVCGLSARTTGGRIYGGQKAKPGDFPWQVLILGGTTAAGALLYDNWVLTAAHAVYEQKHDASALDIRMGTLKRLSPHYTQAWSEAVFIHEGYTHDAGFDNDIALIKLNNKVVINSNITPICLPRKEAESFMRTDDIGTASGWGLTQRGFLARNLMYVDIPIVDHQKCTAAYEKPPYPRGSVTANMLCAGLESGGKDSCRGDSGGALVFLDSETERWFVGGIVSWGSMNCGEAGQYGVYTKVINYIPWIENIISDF
- PROTOCOL: enzyme inhibition, Z-L-Lys-SBzl substrate, tight-binding fit
Bridge positions count the residues as written; N and C are the ends. Ends that are not written are not given here.
VALUE_KIND: Ki (nM)
// units = nM; emit number, no label

binder="GICSRSLPPICIPD (disulfide 3-11 (inferred), Synthetic consensus peptide of the non-selective group, linear form; also called \"NS\" peptide; non-selective peptide) [M2-4G]" u=nM observed_measurement=1030
binder="GWCSRSYPPVCIPD (disulfide 3-11 (inferred), Point mutant of M2-6E) [M2-6E-Y2W]" u=nM observed_measurement=580
binder="GMCSRSYPPVCIPD (disulfide 3-11 (inferred), Point mutant of M2-6E) [M2-6E-Y2M]" u=nM observed_measurement=1500
binder="GYCSRSIPPVCIPD (disulfide 3-11 (inferred), Point mutant of M2-6E) [M2-6E-Y7I]" u=nM observed_measurement=7000
binder="GVCSRSLPPICWPD (disulfide 3-11 (inferred), The parent M1-3E was not tested as a synthetic peptide) [M1-3E-Y12W]" u=nM observed_measurement=5000

Continue with the next binder.
So, cyclo(GICSRSLPPICIPD) (disulfide 3-11 (inferred), Backbone-cyclised form of M2-4G) [M2-4G cyclic] ? Its Ki was 750
